- System: Human Epidermal Keratinocytes
- Experimental protocol: Transglutaminase (TG-1) assay, ELISA on cultured keratinocytes
- Type: cell-based
- Stated conditions: 10 µg/mL; absorbance OD 490nm; control 0.143 (Exp. 1), 0.200 (Exp. 2), 0.218 (Exp. 3)
Measurement type: TG-1 production DAY 3
Respond numerically, and do not add a unit to the figure.

Here are 2 compounds together with their reported answers.
| Compound | TG-1 production DAY 3 |
| --- | --- |
| O=C1CC(c2ccc(O)c(O)c2)Oc2cc(O)cc(O)c21 (stereo not shown) | 0.264 |
| O=C1c2c(O)cc(O)cc2O[C@H](c2ccc(O)c(O)c2)[C@H]1O | 0.231 |

Enquiry: Short answer please: TG-1 production DAY 3, Human Epidermal Keratinocytes, entry O=C1C[C@@H](c2ccc(O)cc2)Oc2cc(O)cc(O)c21
Return: 0.159

Enquiry: GET /values?readout=TG-1 production DAY 3&system=Human Epidermal Keratinocytes&item= COc1ccc(C2CC(=O)c3c(O)cc(O)cc3O2)cc1O (stereo not shown)
Return: 0.190

* * *

- Test system: Human Epidermal Keratinocytes
- Experimental protocol: Transglutaminase (TG-1) assay, ELISA on cultured keratinocytes
- Assay type: cell-based
- Stated conditions: Homo sapiens, Keratinocyte, 48 h; 10 µg/mL; read-out: DAY 2 (% over control) (converted)
Measurement type: activity at 10 µg/mL (%)
Lab book: enter the figure in %, no units written.

Sample records with activity at 10 µg/mL:
| Compound | Quantitative result |
| --- | --- |
| O=C1C[C@@H](c2ccc(O)cc2)Oc2cc(O)cc(O)c21 | 111 |
| O=C1CC(c2ccc(O)c(O)c2)Oc2cc(O)cc(O)c21 (stereo not shown) | 128 |
| COc1ccc(C2CC(=O)c3c(O)cc(O)cc3O2)cc1O (stereo not shown) | 116 |

Shifting focus to the compound that follows.
Enquiry: Request - read-out activity at 10 µg/mL | tested on Human Epidermal Keratinocytes | compound O=C1c2c(O)cc(O)cc2O[C@H](c2ccc(O)c(O)c2)[C@H]1O
Return: 117

* * *

- Test system: Human Epidermal Keratinocytes
- Experimental protocol: Transglutaminase (TG-1) assay, ELISA on cultured keratinocytes
- Type: cell-based
- Stated conditions: Homo sapiens, Keratinocyte, 48 h; 25 µg/mL; read-out: DAY 2 (% over control) (converted)
Measurement type: activity at 25 µg/mL (%)
Give the value in % but do not write % after it.

Solved cases (3 shown):
| Molecule | Quantitative result |
| --- | --- |
| O=C1c2c(O)cc(O)cc2O[C@H](c2ccc(O)c(O)c2)[C@H]1O | 122 |
| O=C1C[C@@H](c2ccc(O)cc2)Oc2cc(O)cc(O)c21 | 149 |
| COc1ccc(C2CC(=O)c3c(O)cc(O)cc3O2)cc1O (stereo not shown) | 125 |

Here is the next item to consider.
Enquiry: Query activity at 25 µg/mL on Human Epidermal Keratinocytes for O=C1CC(c2ccc(O)c(O)c2)Oc2cc(O)cc(O)c21 (stereo not shown)
Return: 146
